Test system: MDCK cells
assayComment: MTT cytotoxicity assay on MDCK cells
Type: cell-based
experimentalConditions: Canis lupus familiaris, 100 µmol/L, 24 h incubation, mean ± SD of three replicates, read-out: Growth Inhibition Rate (%)
Here, each record is paired with measured inhibition at 100 µM data.
parameter: inhibition at 100 µM

In [3]: df
Out[3]:
                                   compound  recordedmeasurement
0  O=c1c(O[C@@H]2O[C@@H](CO)[C@H](O)[C@H]2O)c(-c2ccc(O)cc2)oc2cc(O)cc(O)c12                 < 0%
1  C[C@@H]1O[C@@H](Oc2c(-c3ccc(O)c(O)c3)oc3cc(O)cc(O)c3c2=O)[C@H](O)[C@H](O)[C@H]1O                 < 0%
2  O=c1c(O[C@@H]2O[C@H](CO)[C@@H](O)[C@H](O)[C@H]2O)c(-c2ccc(O)c(O)c2)oc2cc(O)cc(O)c12                 < 0%
3  O=c1c(O)c(-c2ccc(O)c(O)c2)oc2cc(O)cc(O)c12                 < 0%
4  Cc1cc(O)ccc1O[C@H]1O[C@@H](CO)[C@H](O[C@H]2O[C@@H](CO)[C@H](O)[C@@H](O)[C@@H]2O)[C@@H](O)[C@@H]1O                29.5%
5  Cc1cc(O)c(-c2cc(O[C@@H]3O[C@H](CO)[C@@H](O)[C@H](O)[C@H]3O)c(C)cc2O)cc1O[C@@H]1O[C@H](CO)[C@@H](O)[C@H](O)[C@H]1O                23.3%
6  O=c1c(O[C@@H]2O[C@H](CO)[C@H](O)[C@H](O)[C@H]2O)c(-c2ccc(O)c(O)c2)oc2cc(O)cc(O)c12 [Compound 10, hyperoside]                 < 0%
7  C/C(=C\Cc1c(O)ccc(O[C@H]2O[C@@H](CO)[C@H](O)[C@@H](O)[C@@H]2O)c1C)CO                4.08%
8  NS(=O)(=O)c1cc2c(cc1Cl)NCNS2(=O)=O [Hyd, hydrochlorothiazide, reference compound]                 < 0%

Reference source for all entries: paper PMC10934158
